# target_or_test_system: Integrin alpha-V/beta-3 (Homo sapiens, UniProt P05106+P06756)
# Sequence (P05106 27-788 limits assumed): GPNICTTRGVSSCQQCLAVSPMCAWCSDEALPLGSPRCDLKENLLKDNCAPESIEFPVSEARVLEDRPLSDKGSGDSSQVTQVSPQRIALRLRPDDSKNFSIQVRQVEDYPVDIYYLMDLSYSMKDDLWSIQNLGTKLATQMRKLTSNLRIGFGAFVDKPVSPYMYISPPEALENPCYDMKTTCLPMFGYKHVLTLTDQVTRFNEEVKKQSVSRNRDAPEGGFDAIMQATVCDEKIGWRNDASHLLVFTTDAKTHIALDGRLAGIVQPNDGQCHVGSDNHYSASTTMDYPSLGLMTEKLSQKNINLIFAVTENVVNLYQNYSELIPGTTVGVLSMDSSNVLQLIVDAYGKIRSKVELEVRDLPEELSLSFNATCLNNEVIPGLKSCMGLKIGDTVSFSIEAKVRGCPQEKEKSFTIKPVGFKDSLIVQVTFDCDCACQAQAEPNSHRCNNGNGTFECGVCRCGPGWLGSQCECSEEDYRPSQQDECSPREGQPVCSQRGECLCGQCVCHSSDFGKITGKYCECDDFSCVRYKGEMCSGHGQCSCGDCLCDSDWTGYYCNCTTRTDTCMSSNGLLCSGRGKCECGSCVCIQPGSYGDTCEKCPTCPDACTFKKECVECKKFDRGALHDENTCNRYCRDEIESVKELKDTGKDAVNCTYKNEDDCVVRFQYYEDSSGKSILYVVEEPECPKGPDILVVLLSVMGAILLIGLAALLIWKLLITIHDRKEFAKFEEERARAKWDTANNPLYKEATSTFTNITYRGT
# Sequence (P06756 31-889 limits assumed): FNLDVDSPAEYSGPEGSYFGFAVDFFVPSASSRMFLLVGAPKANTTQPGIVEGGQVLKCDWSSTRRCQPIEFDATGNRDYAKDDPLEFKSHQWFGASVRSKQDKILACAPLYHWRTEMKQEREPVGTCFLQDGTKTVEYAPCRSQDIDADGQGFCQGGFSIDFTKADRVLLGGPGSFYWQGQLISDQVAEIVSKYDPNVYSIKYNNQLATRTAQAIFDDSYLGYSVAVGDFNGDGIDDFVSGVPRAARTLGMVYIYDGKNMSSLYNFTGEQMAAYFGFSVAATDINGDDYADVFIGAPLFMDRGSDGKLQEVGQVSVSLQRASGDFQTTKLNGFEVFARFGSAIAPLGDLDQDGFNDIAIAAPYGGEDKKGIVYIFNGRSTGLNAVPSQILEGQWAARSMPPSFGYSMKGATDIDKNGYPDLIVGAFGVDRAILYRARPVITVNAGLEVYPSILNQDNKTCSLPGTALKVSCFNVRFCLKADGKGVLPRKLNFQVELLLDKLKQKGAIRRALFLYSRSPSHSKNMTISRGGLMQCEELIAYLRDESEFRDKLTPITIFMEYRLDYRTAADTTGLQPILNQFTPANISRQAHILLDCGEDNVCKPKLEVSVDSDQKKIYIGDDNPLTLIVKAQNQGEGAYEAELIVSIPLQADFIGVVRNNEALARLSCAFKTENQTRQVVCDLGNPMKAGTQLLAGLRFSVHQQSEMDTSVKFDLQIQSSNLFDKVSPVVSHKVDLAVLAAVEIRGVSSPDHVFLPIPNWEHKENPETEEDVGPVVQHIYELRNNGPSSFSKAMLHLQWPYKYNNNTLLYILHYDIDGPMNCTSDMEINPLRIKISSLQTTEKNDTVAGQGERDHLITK
# Sequence (P06756 891-1048 limits assumed): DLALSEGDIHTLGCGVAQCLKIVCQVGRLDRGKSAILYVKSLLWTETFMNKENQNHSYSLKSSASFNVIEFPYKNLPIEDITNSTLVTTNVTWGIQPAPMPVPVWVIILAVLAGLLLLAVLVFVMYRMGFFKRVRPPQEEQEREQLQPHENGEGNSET
# experiment_description: Inhibition of vitronectin receptor (alpha V beta 3), expressed on human 293 cells, binding to immobilized fibrinogen
value_kind: IC50 (nM)
Give bare numbers, in nM.

Check out these entries, answers already filled in.
compound: Cc1cc(C)c(S(=O)(=O)N[C@@H](CNC(=O)C2=NOC(CCNc3ncc[nH]3)C2)C(=O)O)c(C)c1 (stereo not given in full)
value_kind: IC50
meas_value: 106
--
compound: O=C(NC[C@H](NS(=O)(=O)c1ccc(-c2ccccc2)cc1)C(=O)O)C1=NOC(CCCCNc2ncc[nH]2)C1 (stereo not given in full)
value_kind: IC50
meas_value: 240
--
compound: O=C(NC[C@H](NS(=O)(=O)c1cccc2ccccc12)C(=O)O)C1=NOC(CCCCNc2ncc[nH]2)C1 (stereo not given in full)
value_kind: IC50
meas_value: 51

Respectfully, I request IC50 for each entry included below.
1. Cc1cc(C)c(S(=O)(=O)N[C@@H](CNC(=O)C2=NOC(CCCCNC3=NCCN3)C2)C(=O)O)c(C)c1 (stereo not given in full)
2. CN([C@@H](CNC(=O)C1=NOC(CCCCNc2ccccn2)C1)C(=O)O)S(=O)(=O)c1ccc(-c2ccccc2)cc1 (stereo not given in full)
3. Cc1cc(C)c(S(=O)(=O)N[C@@H](CNC(=O)C2=NOC(CCCCNc3ccccn3)C2)C(=O)O)c(C)c1 (stereo not given in full)

**A:**
[62, 130, 54]

Respectfully, I request IC50 for each entry included below.
1. Cc1cc(C)c(S(=O)(=O)N[C@@H](CNC(=O)C2=NOC(CCCCN=C(N)N)C2)C(=O)O)c(C)c1 (stereo not given in full)
2. Cc1cc(C)c(S(=O)(=O)N[C@@H](CNC(=O)C2=NOC(CCCc3c[nH]c(N)n3)C2)C(=O)O)c(C)c1 (stereo not given in full)

**A:**
[169, 46]

* * *

# target_or_test_system: Integrin alpha-V/beta-3 (Homo sapiens, UniProt P05106+P06756)
# experiment_description: Inhibition of vitronectin receptor (alpha V beta 3), expressed on human 293 cells, binding to immobilized fibrinogen
value_kind: pIC50
Give bare numbers, as −log10 of the molar value.

Respectfully, I request pIC50 for each entry included below.
1. Cc1cc(-c2ccccc2)cc(C)c1S(=O)(=O)N[C@@H](CNC(=O)C1=NOC(CCCCNc2ncc[nH]2)C1)C(=O)O (some centres undefined)
2. Cc1cccc(Cl)c1S(=O)(=O)N[C@@H](CNC(=O)C1=NOC(CCCCNc2ncc[nH]2)C1)C(=O)O (some centres undefined)
3. Cc1cc(C)c(S(=O)(=O)N[C@@H](CNC(=O)C2=NOC(CCCc3cccc(N)n3)C2)C(=O)O)c(C)c1 (some centres undefined)
4. Cc1cc(C)c(S(=O)(=O)N[C@H](CNC(=O)C2=NOC(CCCCNc3ncc[nH]3)C2)C(=O)O)c(C)c1 (some centres undefined)
5. Cc1noc(C)c1S(=O)(=O)N[C@@H](CNC(=O)C1=NOC(CCCCNc2ncc[nH]2)C1)C(=O)O (some centres undefined)

**A:**
1: 8.06; 2: 8.15; 3: 7.59; 4: 5.55; 5: 7.14

**Q:** Entry O=C(NC[C@H](NS(=O)(=O)c1ccccc1)C(=O)O)C1=NOC(CCCCNc2ncc[nH]2)C1 (stereo in doubt; 3q) needs its pIC50 filled in; supply it.
**A:** 7.18

Where do the numbers come from? From ChEMBL document CHEMBL1133173.
